- measuredTarget: T1, full length human GPC3 His (human, UniProt P51654 25-559, limits assumed)
- T1 construct: also called full length human GPC3 protein; not shown: His tag
- testDetails: SPR (Biacore T200), full length human GPC3 His immobilised, IgG1 in solution
Consider the following binders; for each one, report its koff.
Value and unit, in that order.

Some solved cases for reference:
binder | koff
anti-human GPC3 IgG1 antibody clone 2 (antibody, V domains shown) VH: CQSVEESGGRLVTPGTPLTLTCTVSGFSLSTYNMGWIRQAPGEGLEYIGTISSSTGNTYYATWAKGRFTISKTSSTTVDLKITNLTTEDTATYFCVRVNNMGDIWGPGTLVTVSL VL: AIVMTQTPSSKSVAVGDTVTINCQASESVYKDNRLAWFQQKPGQAPKLLIYLASTLASGVPSRFKGSGSGTEFTLTISDVVCDDAATYYCGGYKDSLFDGFPFGGGTEVVVKR | 0.00039 s⁻¹
anti-human GPC3 IgG1 antibody clone 41 (antibody, V domains shown) VH: CQSVEESGGRLVTPGTALTLTCTVSGFSLSTYWMTWVRQAPGKGLEWIGIINPGGSAYYASWAKGRFTISKASSATVDLKMTSLTAADTATYFCAGGGGMDPWGPGTLVTVSS VL: DPVLTQTPSSVSAAVGGTVSISCQSSQSIIKNYLSWFQHKPGQPPKRLIYRASTLPSGVPSRFEGSGSGTEFTLTINDLECDDAATYYCAASYSDNIYVFGGGTEVVVKR | 0.0032 s⁻¹
anti-human GPC3 IgG1 antibody clone 40 (antibody, V domains shown, also called parental clone 40; chimeric anti-GPC3 clone 40) VH: CQSVEESGGRLVTPGTPLTLTCTVSGFSLSTYWMTWVRQAPGKGLEWIGIISPAGSAYYASWAKGRFTISKTSSATVDLKMTSLTTADTATYFCAGGGGMDPWGPGTLVTVSS VL: DPVLTQTPSSVSAAVGGTVSISCQSSQSIVKNYLSWFQQKPGQPPKRLIYKASTLPSGVPSRFKGSGSGTEFTLTISDLECDDAATYYCAASYSDNIYVFGGGTEVVVKR | 0.0018 s⁻¹

Parameter requested: koff. Apply to each item below.
1. anti-human GPC3 IgG1 antibody clone 12 (antibody, V domains shown) VH: CQSVEESGGRLVTPGTPLTLTCTVSGFSLSTYWMTWVRQAPGKGLEWIGIINPSGSAFYASWAKGRFTISKTSSATVDLKMTSLTAADTATYFCAGGGGMDPWGPGTLVTVSS VL: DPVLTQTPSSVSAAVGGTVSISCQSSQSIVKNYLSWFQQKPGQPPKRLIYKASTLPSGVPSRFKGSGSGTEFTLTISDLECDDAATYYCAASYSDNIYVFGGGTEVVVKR
2. anti-human GPC3 IgG1 antibody clone 17 (antibody, V domains shown) VH: CQSVEESGGRLVTPGTPLTLTCTVSGFSLSTYDMSWVRQAPGKGLEYIGWINSGGSPYYARWAKGRFTISKTSSTTVDLKMTSPTTEDTATYFCARHRSGYYGDIWGPGTLVTVSL VL: DPVLTQTPSSVSAAVGDTVSINCQSSQNVYKNRLAWYQQKPGQPPKLLIYGASTLASGVPSRFKGSGSGTQFTLTISDLECDDAATYYCAGGYSTIVDNTFGGGTEVVVKR

["0.0016 s⁻¹", "0.0037 s⁻¹"]
